Assay: Blood-brain barrier penetration by the method of Oldendorf (radioactively marked active material, A. carotis injection, brain radioactivity after 15 seconds)
Details: with addition of glycerol 1-propyl ether, about 0.3 Osmol/l; A. carotis; 15 seconds; + dissolved in inger albumin
Experimental: The effectiveness of the medicament according to the invention was tested according to the method of Oldendorf (Brain-Res., 24, 372-376 (1970)). […] In the case of the medicament according to the invention, the administration took place into the A. carotis. 15 seconds later, the experimental animal was decapitated, the brain removed and the radioactivity bound therein determined. […] The numerical values give the percentage proportion of active material which has passed the blood-brain barrier. […]
assay-endpoint: percentage proportion of active material which has passed the blood-brain barrier, with C3 (%)
Express it in %; write the number only.

Past entries and their recorded results:
compound	experimental-value
CN(Cc1cnc2nc(N)nc(N)c2n1)c1ccc(C(=O)N[C@@H](CCC(=O)O)C(=O)O)cc1 [methotrexate]	5.7
CCCCCCCCCCCCCCCCCCOCC(COP(=O)([O-])OCC[N+](C)(C)C)OC (stereo not shown)	16.4

q: Name the reported percentage proportion of active material which has passed the blood-brain barrier, with C3 value associated with the compound CC[C@]1(O)C[C@@H]2CN(CCc3c([nH]c4ccccc34)[C@@](C(=O)OC)(c3cc4c(cc3OC)N(C)[C@H]3[C@@](O)(C(=O)OC)[C@H](OC(C)=O)[C@]5(CC)C=CCN6CC[C@]43[C@@H]65)C2)C1
a: 4.2

q: Likewise for COc1cccc2c1C(=O)c1c(O)c3c(c(O)c1C2=O)C[C@@](O)(C(C)=O)C[C@@H]3O[C@H]1C[C@H](N)[C@H](O)[C@H](C)O1 ?
a: 24.1

// provenance: patent US5153179A
